- Experimental system: human, citrated, platelet-rich plasma (Homo sapiens, UniProt P05106+P08514)
- Construct: aggregating human, citrated, platelet-rich plasma; endogenous in cells; host or cells: human platelets in citrated platelet-rich plasma
- Sequence (P08514 32-887 limits assumed): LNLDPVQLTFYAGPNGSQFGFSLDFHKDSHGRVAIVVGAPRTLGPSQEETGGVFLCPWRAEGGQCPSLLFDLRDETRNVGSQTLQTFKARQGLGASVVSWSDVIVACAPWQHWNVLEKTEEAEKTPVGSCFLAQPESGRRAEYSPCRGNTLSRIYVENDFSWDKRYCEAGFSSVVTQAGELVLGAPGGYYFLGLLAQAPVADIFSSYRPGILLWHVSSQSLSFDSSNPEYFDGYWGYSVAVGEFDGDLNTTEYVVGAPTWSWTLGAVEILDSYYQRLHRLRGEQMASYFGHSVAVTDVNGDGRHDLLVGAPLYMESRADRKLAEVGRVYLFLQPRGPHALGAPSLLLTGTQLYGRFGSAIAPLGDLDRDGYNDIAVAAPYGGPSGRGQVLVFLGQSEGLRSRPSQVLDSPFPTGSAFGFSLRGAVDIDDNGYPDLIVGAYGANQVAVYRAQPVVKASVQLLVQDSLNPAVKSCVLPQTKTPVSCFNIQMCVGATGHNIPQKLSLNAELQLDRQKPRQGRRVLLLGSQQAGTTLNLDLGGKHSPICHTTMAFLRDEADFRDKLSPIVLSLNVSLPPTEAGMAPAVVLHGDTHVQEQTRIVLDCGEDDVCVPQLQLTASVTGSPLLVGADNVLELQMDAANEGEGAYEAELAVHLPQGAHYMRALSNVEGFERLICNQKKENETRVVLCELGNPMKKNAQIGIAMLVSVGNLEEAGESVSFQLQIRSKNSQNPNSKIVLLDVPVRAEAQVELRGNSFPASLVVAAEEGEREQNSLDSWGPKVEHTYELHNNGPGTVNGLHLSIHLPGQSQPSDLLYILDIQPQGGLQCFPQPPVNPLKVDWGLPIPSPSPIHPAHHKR
- Sequence (P08514 891-1039 limits assumed): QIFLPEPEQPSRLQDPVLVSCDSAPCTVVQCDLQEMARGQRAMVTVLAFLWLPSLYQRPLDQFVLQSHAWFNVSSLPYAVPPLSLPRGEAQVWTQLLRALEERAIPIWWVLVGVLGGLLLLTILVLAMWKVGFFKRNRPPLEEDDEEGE
- Sequence (P05106 27-788): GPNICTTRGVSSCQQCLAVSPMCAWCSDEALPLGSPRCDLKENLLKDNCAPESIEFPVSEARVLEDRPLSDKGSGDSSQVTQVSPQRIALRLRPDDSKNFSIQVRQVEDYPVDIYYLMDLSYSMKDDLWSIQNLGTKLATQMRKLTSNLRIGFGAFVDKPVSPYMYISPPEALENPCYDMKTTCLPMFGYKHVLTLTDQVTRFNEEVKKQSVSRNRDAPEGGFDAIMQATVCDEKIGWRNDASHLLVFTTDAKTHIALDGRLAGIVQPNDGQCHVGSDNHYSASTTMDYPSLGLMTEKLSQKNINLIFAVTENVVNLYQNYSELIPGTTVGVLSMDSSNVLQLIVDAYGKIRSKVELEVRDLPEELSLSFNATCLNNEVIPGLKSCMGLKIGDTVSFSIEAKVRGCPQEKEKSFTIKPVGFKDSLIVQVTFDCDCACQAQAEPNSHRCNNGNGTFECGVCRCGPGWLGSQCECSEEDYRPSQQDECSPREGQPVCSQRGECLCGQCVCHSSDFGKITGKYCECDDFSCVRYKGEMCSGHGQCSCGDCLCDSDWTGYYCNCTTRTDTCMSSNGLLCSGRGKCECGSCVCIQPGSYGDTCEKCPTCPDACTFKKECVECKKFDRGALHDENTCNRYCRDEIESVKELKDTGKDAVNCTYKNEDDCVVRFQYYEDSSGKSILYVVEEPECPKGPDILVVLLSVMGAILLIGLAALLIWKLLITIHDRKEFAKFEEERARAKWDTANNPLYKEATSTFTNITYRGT
- Assay notes: Test (a): inhibition of ADP stimulated platelet aggregation (Born)
- Format: cell-based
- Stated conditions: ADP induced aggregation of human platelet-rich plasma; read-out: Test (a): pA2 value indicating potency of platelet aggregation inhibition (converted)
Each item that follows carries a reported Kb.
Measurement label: Kb (nM)

{"Compound": "COC(=O)COc1ccc(OCC2CCN(c3ccncc3)CC2)cc1", "Measurement label": "Kb", "Quantity unit": "nM", "Recorded result": 316}
{"Compound": "CCCCS(=O)(=O)N[C@@H](Cc1ccc(OCCCN(C)c2ccncc2)cc1)C(=O)O", "Measurement label": "Kb", "Quantity unit": "nM", "Recorded result": 79.4}
{"Compound": "CCCCS(=O)(=O)NC(Cc1ccc(C(=O)CN2CCN(c3ccncc3)CC2)cc1)C(=O)OC (racemic)", "Measurement label": "Kb", "Quantity unit": "nM", "Recorded result": 2000}
{"Compound": "COC(=O)CNc1ccc(OC(=O)CC2CCN(c3ccncc3)CC2)cc1", "Measurement label": "Kb", "Quantity unit": "nM", "Recorded result": 6310}

meta.source: patent US5750754A
